# System: HL-60(TB) leukemia
# EXPERIMENT NOTES: NCI tumour cell line growth inhibition, 48 h
TEST READOUT: TGI

Here are 3 molecules together with their reported answers.
COc1ccc2[nH]c(=O)c(/C=C/C(=O)/C=C/c3ccc(O)c(OC)c3)cc2c1 = > 100 µM
Cc1ncc(C(=O)Nc2ccc(CN3CCN(C)CC3)c(C(F)(F)F)c2)cc1C#Cc1cnc(N)c2ncccc12 = 7.67 µM
Cc1ccccc1-c1c(N)nc(N)nc1C(=O)Nc1nccs1 = > 100 µM

Looking for the measured TGI of CC(=O)OC1C/C(C)=C/CCC(C)/C=C/C2(C)CCC(C(C)(C)O)C12 (configuration not stated) , can you help?
55.5 µM

Returns the measured TGI for the input molecule. Input: CCc1ccc(Nc2cc(=O)[nH]c(=S)n2C)cc1
> 100 µM

Consider the molecule shown here: Nc1c(C(=O)c2cccc(CCC3(O)CCCC3)c2)cnn1-c1ccc(F)cc1 What is its recorded TGI?
> 25 µM

GET /values?readout=TGI&item= COc1ccc(N2C(=O)c3cccnc3S2(=O)=O)cc1
> 100 µM

Entry Cc1ccccc1NC(=O)C1C(=O)N(c2ccccc2C)C(=O)/C1=N\N (configuration not stated) : reported TGI = ?
> 100 µM

Given the entry Cn1c(Sc2ccc(-c3cccnc3)n2C)ccc1-c1cccnc1 , report its measured TGI.
5.78 µM

Would you kindly share the measured TGI for O=C(Cc1ccccc1)NNc1nc(NNC(=O)c2ccncc2)nc(Nc2ccccc2)n1 ?
> 10 µM

Report TGI for O=c1cc(O)c2ccccc2o1 please.
> 100 µM

Please report the recorded TGI for CO[C@@H]1C=C[C@@]23c4cc5c(cc4C(O)N(CC2O)C3C1)OCO5 (some centres not stated) .
5.64 µM

====

# System: COLO 205 colon
# EXPERIMENT NOTES: NCI tumour cell line growth inhibition, 48 h
TEST READOUT: TGI (µM)
All answers are understood in µM, so give the number only.

CN(C)CCCNc1ccnc2cc([N+](=O)[O-])ccc12 = 7.9
CC(C)=C[C@@H]1C[C@H](C)c2c(O)cc(C)c3c2C1=C(C)C(=O)C3=O = 32.6

Consider the additional molecule presented here.
What value of TGI has been reported for the following molecule? CN(C)C(=O)c1cc2cnc(Nc3ccc(-c4csc5c(=O)cc(N6CCNCC6)oc45)cc3)nc2n1C1CCCC1
4.64

====

# Tested on: EKVX NSCLC
# EXPERIMENT NOTES: NCI tumour cell line growth inhibition, 48 h; in the data active means GI50 below about 0.43 µM; inactive means the rest
Pick one and only one: True for active, False for inactive

CNNC(=N\S(=O)(=O)c1cc(C(=O)Nc2ccc(Cl)cc2)c(Cl)cc1SCc1ccccc1)/N=C/c1ccc([N+](=O)[O-])s1 = False

For Cc1ncc(C(=O)Nc2ccc(CN3CCN(C)CC3)c(C(F)(F)F)c2)cc1C#Cc1cnc(N)c2ncccc12 , what call appears in the results of this test?
False

Field: outcome | Entry: COc1cc2ccnc3c2c(c1OC)-c1ccc(=O)ccc1-3
False

// return assay outcome for COc1ccc2[nH]c(=O)c(/C=C/C(=O)/C=C/c3ccc(O)c(OC)c3)cc2c1
False

Assay result, entry C[C@H]1[C@H](C)CC[C@]2(C(=O)O)CC[C@]3(C)C(=CC[C@@H]4[C@@]5(C)CC[C@H](OC(=O)/C=C/c6ccc(O)cc6)C(C)(C)[C@@H]5CC[C@]43C)[C@H]12 — outcome?
False

I'd appreciate the recorded outcome for CC1(C)N=C(N)N=C(N)N1c1cccc(CCCCc2ccccc2)c1 from this test.
False

Answer briefly: the call reported for C=CC(=O)N1CCC([C@@H]2CCNc3c(C(N)=O)c(-c4ccc(Oc5ccccc5)cc4)nn32)CC1 in this assay.
False

Recorded test call requested for C/C(=N\NC(=O)c1ccccc1O)c1cccc(/C(C)=N/NC(=O)c2ccccc2O)n1
True

====

# Test system: IGROV1 ovarian
# EXPERIMENT NOTES: NCI tumour cell line growth inhibition, 48 h; in the data active = GI50 below about 0.43 µM; inactive = the rest
Where a SMILES comes first, the peptide text is derived from it. [ ]: non-standard residue; d: D form. NMeY = CN[C@@H](Cc1ccc(O)cc1)C(=O)O; dNMeF = CN[C@H](Cc1ccccc1)C(=O)O; Sar = CNCC(=O)O
Return exactly one item of t = active, f = inactive

Example cases with answers are listed next.
COc1c(NC(=O)CC(C)=O)[c]([Hg][O]C(C)=O)c(OC)c(Cl)[c]1[Hg][O]C(C)=O = f
Fc1ccc(-c2nnc3sc(COc4ccccc4Cl)nn23)cc1Cl = f
CCCCCCCCCCCC[n+]1ccccc1 = f
CC[C@H](C)[C@@H]1NC(=O)[C@H](Cc2ccc(O)cc2)N(C)C(=O)[C@H](Cc2ccccc2)NC(=O)CN(C)C(=O)[C@@H]2CCCN2C(=O)[C@@H](Cc2ccccc2)N(C)C(=O)[C@H](CC(C)C)NC1=O (cyclo(F[NMeY]IL[dNMeF]P[Sar])) = t

Please state the recorded outcome for this compound: Nc1c(C(=O)c2cccc(CCC3(O)CCCC3)c2)cnn1-c1ccc(F)cc1
f

Tell me the recorded outcome of this test for COc1cc2c(c(OC)c1OC)-c1ccc(SC)c(=O)cc1[C@@H](NCc1cccc(C#N)c1)CC2 .
t

Record lookup: outcome of this test for CC1(C)N=C(N)N=C(N)N1c1cccc(CCCCc2ccccc2)c1 ?
t

====

This section presents compounds with their documented TGI values.
# Test system: SF-295 CNS
# EXPERIMENT NOTES: NCI tumour cell line growth inhibition, 48 h

Sample records with TGI:
CN1CCCC1=NC#N = > 100 µM
O=C(/C=C/c1ccccc1O)c1cccnc1 = > 100 µM
CCOC(=O)C(Cc1ccccc1)NC(=O)OC(C)(C)C (configuration not stated) = > 100 µM
CN(C)CC/C(=N\Nc1ccc(Cl)c(Cl)c1)c1ccccc1 = 3.99 µM
Nc1nc(Cl)cc(NCC2(CO)CCC(O)C2)n1 (configuration not stated) = > 100 µM

Hi! What's the reported TGI for Cc1cc2c3ccccc3ccc2[n+]2ccccc12 on SF-295 CNS?
12.7 µM

====

# Tested on: UO-31 renal
# EXPERIMENT NOTES: NCI tumour cell line growth inhibition, 48 h; in the data active means GI50 below about 0.43 µM; inactive means the rest
Where a SMILES comes first, the peptide text is derived from it. [ ]: non-standard residue; d: D form. NMeY = CN[C@@H](Cc1ccc(O)cc1)C(=O)O; dNMeF = CN[C@H](Cc1ccccc1)C(=O)O; Sar = CNCC(=O)O
Log the outcome using a class from active, inactive

// param item: CC[C@H](C)[C@@H]1NC(=O)[C@H](Cc2ccc(O)cc2)N(C)C(=O)[C@H](Cc2ccccc2)NC(=O)CN(C)C(=O)[C@@H]2CCCN2C(=O)[C@@H](Cc2ccccc2)N(C)C(=O)[C@H](CC(C)C)NC1=O (cyclo(F[NMeY]IL[dNMeF]P[Sar])) ; yields the recorded call
inactive

Write down the call the test reported for this molecule. Item: COc1ccc(-c2cc(-c3cn[nH]c3-c3ccccn3)ccn2)cc1
inactive

# outcome recorded in this test, key = c1ccc(-c2nnc(Nc3ccc4c(c3)OCCO4)o2)c(NCc2ccncc2)c1
active

====

# Test system: OVCAR-5 ovarian
# EXPERIMENT NOTES: NCI tumour cell line growth inhibition, 48 h; in the data active means GI50 below about 0.43 µM; inactive means the rest
Classes to choose from: active, inactive

Consider the worked cases shown below.
ICCC(c1ccccc1)(c1ccccc1)c1ccccc1 = inactive
c1ccc(-c2nnc(Nc3ccc4c(c3)OCCO4)o2)c(NCc2ccncc2)c1 = active
O=C(Nc1ccccc1)NS(=O)(=O)c1ccc(N2N=C3c4ccccc4CC3C2c2ccccn2)cc1 (stereo unspecified) = inactive

Just curious, what result did CNNC(=N\S(=O)(=O)c1cc(C(=O)Nc2ccc(Cl)cc2)c(Cl)cc1SCc1ccccc1)/N=C/c1ccc([N+](=O)[O-])s1 get here?
inactive

Would you mind telling me which call this test gave ClC1=NC(Cl)C(Cl)=N/C1=N\c1ncn[nH]1 (stereo unspecified) ?
inactive

====

# Tested on: UACC-62 melanoma
# EXPERIMENT NOTES: NCI tumour cell line growth inhibition, 48 h
The following compounds are shown together with reported TGI values.

Some compounds with known TGI results, for comparison:
Nc1nc(Cl)cc(NCC2(CO)CCC(O)C2)n1 (stereo not given) = > 100 µM
CC1(O)CC2(O)C=CC3=C(C(=O)c4cccc(O)c4C3=O)C2(O)C(=O)C1O (stereo not given) = 6.88 µM
NC1=CN(Cc2ccccc2)C2=N/C(=C\c3ccccc3)C(=O)N12 = > 100 µM
O=C(/C=C/c1ccccc1O)c1cccnc1 = > 100 µM
CCN1C(=O)c2ccccc2C1(O)c1ccc(Cl)cc1 (stereo not given) = > 100 µM

What value of TGI has been reported for the following compound? CN(C)/C=C(\C(=O)c1ccccc1)n1nc(-c2ccccc2)cc1-c1ccccc1
> 10 µM

// query TGI value for entry COc1ccc(C2CC(=O)CC(c3ccc(OC)cc3)C23C(=O)NC(=S)NC3=O)cc1 (stereo not given)
> 100 µM

What value of TGI has been reported for the following compound? Cc1ncc(C(=O)Nc2ccc(CN3CCN(C)CC3)c(C(F)(F)F)c2)cc1C#Cc1cnc(N)c2ncccc12
1.31 µM

For the compound shown here, COC(=O)n1c(=O)n(-c2ccccc2)c(=O)n1C(=O)Nc1ccccc1 , give the reported TGI.
> 100 µM

What does the data say about its TGI? Entry: CCC[CH2][Sn]([CH2]CCC)([O]C(=O)c1cc(OC)c(OC)cc1OC)[O]C(=O)c1cc(OC)c(OC)cc1OC
2.37 µM
